# System name: hFPR1 (Homo sapiens)
# Construct: expressed in transfected cells
# Test method notes: [Ca2+]i mobilization in FlpIn-CHO cells stably expressing hFPR1
# Assay type: cell-based
# Particulars: Table 10; receptor not given; ND = Not detectable; read-out: Calcium pEC50 (converted)
# Description: cDNDA construct and generation of stable cell lines: cDNA in pcDNA3.1^+ encoding the human formyl peptide receptors (FPR) subtypes, hFPR1, hFPR2 and hFPR3 was obtained from Invitrogen. […] Intracellular calcium mobilization: Intracellular calcium mobilization was assayed as described previously (Keov, P et al., 2014). […] Cells were then further washed and placed in HBS/BSA/probenecid solution for ligation addition and assay using the FLEXstation 3 plate reader (Molecular Devices, Sunnyvale, Calif.). […]
// values below are reported log10 EC50
The figures below represent log10 of EC50, where EC50 is stated in µM.

COc1ccccc1Cc1cc(C)nn(CC(=O)Nc2ccc(C)cc2)c1=O ... 0.70
COc1ccc(NC(=O)Cn2nc(C)cc(Cc3c(OC)cccc3OC)c2=O)cc1 ... 0.45
COc1ccccc1Cc1cc(C)nn(CC(=O)Nc2ccc(Cl)cc2)c1=O ... 1.26
Cc1cc(Cc2ccccn2)c(=O)n(CC(=O)Nc2ccc(Cl)cc2)n1 ... 0.66

**Query** Which log10 EC50 reading was recorded for the molecule COc1cccc(Cc2cc(C)nn(Cc3ccc(Cl)cc3)c2=O)c1OC ?
**Result** -0.39

**Query** For Cc1cc(Cc2cccnc2)c(=O)n(CC(=O)Nc2ccc(Cl)cc2)n1 then?
**Result** 1.52

**Query** For COc1ccc(OC)c(Cc2cc(C)nn(CC(=O)Nc3ccc(Cl)cc3)c2=O)c1 then?
**Result** 0.78

* * *

# Test method notes: Plasma levels and pharmacokinetics in mice
# Assay type: in vivo, mouse
# Particulars: mouse, in vivo; Table 9; mice
// values below are reported half-life
Please reply with the bare figure in h and do not write the unit itself.

**Query** Which half-life reading was recorded for the compound Cc1cc(Cc2cccnc2)c(=O)n(CC(=O)Nc2ccc(Cl)cc2)n1 ?
**Result** 11.7

**Query** For COc1cccc(Cc2cc(C)nn(Cc3ccc(Cl)cc3)c2=O)c1OC then?
**Result** 9.5

**Query** For CC(C)C1C(NC(=O)Nc2ccc(Cl)cc2)C(=O)N(c2ccccc2)N1C (stereo not shown) then?
**Result** 3.8

**Query** For COc1cccc(Cc2cc(C)nn(C(C)C(=O)Nc3ccc(Br)cc3)c2=O)c1 (stereo not shown) then?
**Result** 7.6

* * *

# System name: hFPR1 (Homo sapiens, UniProt P21462)
# Construct: expressed in transfected cells
# Sequence (P21462 whole entry): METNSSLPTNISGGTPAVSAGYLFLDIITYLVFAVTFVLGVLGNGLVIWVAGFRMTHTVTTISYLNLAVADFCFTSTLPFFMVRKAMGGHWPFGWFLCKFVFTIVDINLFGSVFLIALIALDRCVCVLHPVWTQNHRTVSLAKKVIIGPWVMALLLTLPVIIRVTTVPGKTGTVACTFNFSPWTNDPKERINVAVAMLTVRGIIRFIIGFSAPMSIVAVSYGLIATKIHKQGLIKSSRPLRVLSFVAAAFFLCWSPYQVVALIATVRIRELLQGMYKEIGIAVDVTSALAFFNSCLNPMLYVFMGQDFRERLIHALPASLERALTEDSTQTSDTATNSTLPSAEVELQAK
# Test method notes: ERK1/2 phosphorylation (AlphaScreen SureFire) in hFPR1-FlpIn-CHO cells
# Assay type: cell-based
# Particulars: Table 10; receptor not given, values of 10394/10396 equal the hFPR1 values of Table 9
Measured parameter: ERK pEC50
Respond using a number only.

Cc1cc(Cc2ccccc2F)c(=O)n(C(C)C(=O)Nc2ccc(Br)cc2)n1 (stereo not shown) ... 5.75
COc1cccc(Cc2cc(C)nn(C(C)C(=O)Nc3cccc(F)c3)c2=O)c1 (stereo not shown) ... 5.12
COc1cccc(Cc2cc(C)nn(C(C)C(=O)Nc3ccc(Cl)cc3)c2=O)c1 (stereo not shown) ... 5.47

# context switch: different compound, same ERK pEC50
**Query** Which measured ERK pEC50 belongs to Cc1cc(Cc2ccc(F)cc2)c(=O)n(C(C)C(=O)Nc2ccc(Br)cc2)n1 (stereo not shown) , tested on hFPR1 (Homo sapiens, UniProt P21462)?
**Result** 5.74

* * *

# System name: hFPR1 (Homo sapiens, UniProt P21462)
# Construct: expressed in transfected cells
# Test method notes: ERK1/2 phosphorylation (AlphaScreen SureFire) in hFPR1-FlpIn-CHO cells
# Format: cell-based
# Particulars: Table 10; receptor not given, values of 10394/10396 equal the hFPR1 values of Table 9; read-out: ERK pEC50 (converted)
Measured parameter: EC50 (µM)
Please reply with the bare figure in µM and do not write the unit itself.

Study these solved cases before continuing.
Cc1cc(Cc2cccnc2)c(=O)n(CC(=O)Nc2ccc(Cl)cc2)n1 [MIPS-0010396] ... 0.676
COc1cccc(Cc2cc(C)nn(C(C)C(=O)Nc3ccc4c(c3)OCO4)c2=O)c1 (stereo not shown) [MIPS-0008750] ... 5.75
COc1ccccc1Cc1cc(C)nn(CC(=O)Nc2ccc(C)cc2)c1=O [MIPS-0014058] ... 1.15
COc1ccc(NC(=O)Cn2nc(C)cc(Cc3c(OC)cccc3OC)c2=O)cc1 [MIPS-0014071] ... 2.63
COc1cccc(Cc2cc(C)nn(CC(=O)Nc3ccc(Cl)cc3)c2=O)n1 [MIPS-0014055] ... 1.78

**Query** Which EC50 reading was recorded for the compound COc1cccc(Cc2cc(C)nn(C(C)C(=O)Nc3ccc4c(c3)OCO4)c2=O)c1 (stereo not shown) [MIPS-0008856] ?
**Result** 12.6

**Query** For COc1cccc(Cc2cc(C)nn(Cc3ccc(Cl)cc3)c2=O)c1OC [MIPS-0010394] then?
**Result** 0.17

**Query** For Cc1cc(Cc2ccccn2)c(=O)n(CC(=O)Nc2ccc(Cl)cc2)n1 [MIPS-0010397] then?
**Result** 1.02

**Query** For Cc1cc(Cc2cccc3c2OCCO3)c(=O)n(CC(=O)Nc2ccc(Cl)cc2)n1 [MIPS-0014053] then?
**Result** 1.91

**Query** For Cc1cc(Cc2ccccn2)c(=O)n(CC(=O)Nc2ccc(Cl)cc2)n1 [MIPS-0014057] then?
**Result** 0.603

* * *

# System name: hFPR1 (Homo sapiens)
# Construct: expressed in transfected cells
# Test method notes: ERK1/2 phosphorylation (AlphaScreen SureFire) in hFPR1-FlpIn-CHO cells
# Format: cell-based
# Particulars: Table 10; receptor not given, values of 10394/10396 equal the hFPR1 values of Table 9
Measured parameter: ERK pEC50

Study these solved cases before continuing.
CCc1ccc(NC(=O)Cn2nc(C)cc(Cc3ccccc3OC)c2=O)cc1 ... 5.30 ± 0.12
Cc1cc(Cc2cccc(F)c2)c(=O)n(C(C)C(=O)Nc2ccc(Br)cc2)n1 (centres unmarked) ... 5.68 ± 16
COc1ccc(Cc2cc(C)nn(C(C)C(=O)Nc3ccc(Br)cc3)c2=O)cc1 (centres unmarked) ... 5.58 ± 0.14
COc1ccccc1Cc1cc(C)nn(CC(=O)Nc2ccc(Cl)cc2)c1=O ... 5.91 ± 0.13
COc1cccc(Cc2cc(C)nn(C(C)C(=O)Nc3ccc(F)cc3)c2=O)c1 (centres unmarked) ... 5.07 ± 0.18
COc1ccccc1Cc1cc(C)nn(C(C)C(=O)Nc2ccc(Br)cc2)c1=O (centres unmarked) ... 6.07 ± 0.11

**Query** Which measured ERK pEC50 belongs to COc1ccc(NC(=O)Cn2nc(C)cc(Cc3ccccc3OC)c2=O)cc1 , tested on hFPR1 (Homo sapiens)?
**Result** 5.10 ± 0.23

**Query** For COc1ccc(OC)c(Cc2cc(C)nn(CC(=O)Nc3ccc(Cl)cc3)c2=O)c1 then?
**Result** 5.00 ± 0.37

* * *

# Test method notes: Plasma levels and pharmacokinetics in mice
# Type: in vivo, mouse
# Particulars: mouse, in vivo; Table 9; mice
// values below are reported Tmax

Study these solved cases before continuing.
Cc1cc(Cc2cccnc2)c(=O)n(CC(=O)Nc2ccc(Cl)cc2)n1 ... 60 min
COc1cccc(Cc2cc(C)nn(C(C)C(=O)Nc3ccc(Br)cc3)c2=O)c1 (stereo not shown) ... 30 min
CC(C)C1C(NC(=O)Nc2ccc(Cl)cc2)C(=O)N(c2ccccc2)N1C (stereo not shown) ... 120 min

**Query** Which Tmax reading was recorded for the molecule COc1cccc(Cc2cc(C)nn(Cc3ccc(Cl)cc3)c2=O)c1OC ?
**Result** 18 min

* * *

# System name: hFPR1 (Homo sapiens)
# Construct: expressed in transfected cells
# Test method notes: [Ca2+]i mobilization in FlpIn-CHO cells stably expressing hFPR1
# Assay type: cell-based
# Set-up: unit not given here
# Particulars: Table 10; receptor not given; ND = Not detectable
# Experimental: cDNDA construct and generation of stable cell lines: cDNA in pcDNA3.1^+ encoding the human formyl peptide receptors (FPR) subtypes, hFPR1, hFPR2 and hFPR3 was obtained from Invitrogen. […] Intracellular calcium mobilization: Intracellular calcium mobilization was assayed as described previously (Keov, P et al., 2014). […] Cells were then further washed and placed in HBS/BSA/probenecid solution for ligation addition and assay using the FLEXstation 3 plate reader (Molecular Devices, Sunnyvale, Calif.). […]
Classes based on Calcium Rmax: low band (below 20), middle band (20 to below 30), high band (30 or more)

COc1ccccc1Cc1cc(C)nn(CC(=O)Nc2ccc(Cl)cc2)c1=O [MIPS-0010392] ... low band

**Query** Exercise: read the entry COc1cccc(Cc2cc(C)nn(C(C)C(=O)Nc3ccc4c(c3)OCO4)c2=O)c1 (stereo not drawn) [MIPS-0008750] and state which class it falls under.
**Result** middle band

**Query** For COc1cccc(Cc2cc(C)nn(C(C)C(=O)Nc3ccc4c(c3)OCO4)c2=O)c1 (stereo not drawn) [MIPS-0008856] then?
**Result** low band

Source: patent US10328075B2
